Answer each item with its documented abundance fitness.
B1: Intersectin-1, residues 909 to 971; numbered along this chain, Q15811 (parent)
chain: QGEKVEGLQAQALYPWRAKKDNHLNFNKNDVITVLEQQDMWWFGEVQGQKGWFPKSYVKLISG

# Variants of: B1
# Experiment Summary: abundance fitness (aPCA) (normalised: wild type 0, dead -1); higher = more abundant; growth selection in yeast, the domain comes from the species named
# Measurement Context: Homo sapiens
Just the number, please, no unit after it.

Query :: Item "D21Y" has what recorded abundance fitness?
Result :: -0.102

Query :: Item "E3L" has what recorded abundance fitness?
Result :: -0.268

Query :: Item "P15Q" has what recorded abundance fitness?
Result :: 0.052

Query :: Item "Q37V" has what recorded abundance fitness?
Result :: -0.588

Query :: Item "P54W" has what recorded abundance fitness?
Result :: -0.437

Query :: Item "K20Y" has what recorded abundance fitness?
Result :: -0.15

Query :: Item "L8A" has what recorded abundance fitness?
Result :: 0.043

Query :: Item "E45F" has what recorded abundance fitness?
Result :: -0.055

Query :: Item "P54Q" has what recorded abundance fitness?
Result :: -0.688

Query :: Item "N22H" has what recorded abundance fitness?
Result :: -0.301

Query :: Item "Q47D" has what recorded abundance fitness?
Result :: -0.546

Query :: Item "K20M" has what recorded abundance fitness?
Result :: -0.06

Query :: Item "K19F" has what recorded abundance fitness?
Result :: 0.032

Query :: Item "F53Y" has what recorded abundance fitness?
Result :: -0.666

Query :: Item "I32L" has what recorded abundance fitness?
Result :: -0.23

Query :: Item "E3D" has what recorded abundance fitness?
Result :: -0.021

Query :: Item "S56Q" has what recorded abundance fitness?
Result :: -0.099

Query :: Item "V46T" has what recorded abundance fitness?
Result :: -0.155

Query :: Item "W42P" has what recorded abundance fitness?
Result :: -0.658

Query :: Item "F43V" has what recorded abundance fitness?
Result :: -0.923

Query :: Item "K19N" has what recorded abundance fitness?
Result :: -0.055

Query :: Item "P15K" has what recorded abundance fitness?
Result :: -0.14

Query :: Item "P15D" has what recorded abundance fitness?
Result :: -0.156

Query :: Item "D30V" has what recorded abundance fitness?
Result :: -0.357

Query :: Item "N22C" has what recorded abundance fitness?
Result :: 0.051

Query :: Item "F53L" has what recorded abundance fitness?
Result :: -0.701

Query :: Item "K55N" has what recorded abundance fitness?
Result :: -0.054

Query :: Item "R17W" has what recorded abundance fitness?
Result :: -0.24

Query :: Item "T33E" has what recorded abundance fitness?
Result :: -0.089

Query :: Item "I32V" has what recorded abundance fitness?
Result :: -0.052

Query :: Item "S62E" has what recorded abundance fitness?
Result :: -0.398

Query :: Item "V34G" has what recorded abundance fitness?
Result :: -0.455

Query :: Item "H23A" has what recorded abundance fitness?
Result :: -0.245

Query :: Item "F26M" has what recorded abundance fitness?
Result :: 0.014

Query :: Item "Q1W" has what recorded abundance fitness?
Result :: -0.34

Query :: Item "E6V" has what recorded abundance fitness?
Result :: -0.122

Query :: Item "K4R" has what recorded abundance fitness?
Result :: -0.126

Query :: Item "D21P" has what recorded abundance fitness?
Result :: -0.005

Query :: Item "K50S" has what recorded abundance fitness?
Result :: -0.139

Query :: Item "D39Q" has what recorded abundance fitness?
Result :: -0.328

Query :: Item "A18W" has what recorded abundance fitness?
Result :: -0.362

Query :: Item "N25A" has what recorded abundance fitness?
Result :: -0.064

Query :: Item "V46S" has what recorded abundance fitness?
Result :: -0.001

Query :: Item "P15Y" has what recorded abundance fitness?
Result :: -0.269

Query :: Item "N22Q" has what recorded abundance fitness?
Result :: 0.015

Query :: Item "A18V" has what recorded abundance fitness?
Result :: -0.215
